This section presents molecules with their documented IC50 values.
# target_of_assay: KRas G12C (Homo sapiens, UniProt P01116, G12C)
# Sequence (P01116 1-188 isoform P01116-2 G12C): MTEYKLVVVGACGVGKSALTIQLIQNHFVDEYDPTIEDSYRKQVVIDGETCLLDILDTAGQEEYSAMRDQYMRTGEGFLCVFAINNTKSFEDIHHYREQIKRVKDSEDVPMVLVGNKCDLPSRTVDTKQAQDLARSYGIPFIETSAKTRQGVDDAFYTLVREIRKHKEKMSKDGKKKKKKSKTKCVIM
# assay_procedure: Cellular inhibition of KRas G12C measured by Phospho-ERK in NCI-H358 cells
# Assay type: cell-based
# stated_conditions: pERK(Thr202/Tyr204) normalized with GAPDH, NCI-H358 cells, 3 hours; read-out: IC50
Where a name gives a salt, the structure may show the parent alone.

These recorded examples may help you get a feel for the data.
C=CC(=O)N1CCN(c2nc(OC[C@@H]3CCCN3C)nc3c2CCN(c2ccccc2OC(F)(F)F)C3)CC1CC#N (some centres unmarked)    0.1 to 1000 nM
C=CC(=O)N1CCN(c2nc(OC[C@@H]3CCCN3C)nc3c2CCN(c2c(F)cccc2C(F)(F)F)C3)CC1CC#N (some centres unmarked) [Example 412]    0.1 to 1000 nM
C=CC(=O)N1CCN(c2nc(OC[C@@H]3CCCN3C)nc3c2CCN(c2ccc(F)c4ccccc24)C3)C[C@@H]1CC#N    0.1 to 1000 nM
C=CC(=O)N1CCN(c2nc(OC[C@@H]3CCCC(=O)N3)nc3c2CCN(c2cc(O)cc4ccccc24)C3)CC1 (single isomer, unassigned)    > 1000 nM
C=C(F)C(=O)N1CCN(c2nc(OCCCN3C[C@@H]4C[C@H]3CO4)nc3c2CCN(c2cccc4cccc(Cl)c24)C3)C[C@@H]1CC#N    0.1 to 1000 nM
Cc1cccc2cccc(N3CCc4c(nc(OC[C@@H]5CC(F)(F)CN5C)nc4N4CCN(C(=O)/C=C/CN5CC(F)C5)[C@@H](CC#N)C4)C3)c12    0.1 to 1000 nM
C=CC(=O)N1CCN(c2nc(OC[C@@H]3CCCN3C)nc3c2CCN(c2cccc4ccccc24)C3)[C@H](C)C1    > 1000 nM
C=CC(=O)N1CCN(c2nc(OCCCN3CCOCC3)nc3c2CCN(c2ccc(O)cc2OC(F)(F)F)C3)CC1    > 1000 nM
C=CC(=O)N1CCN(c2nc(O[C@H](C)CN(C)C)nc3c2CCN(c2cc(O)cc4ccccc24)C3)[C@@H](C)C1    0.1 to 1000 nM
C=CC(=O)N1CCN(c2nc(OCCCN3C[C@@H]4C[C@H]3CO4)nc3c2CCN(c2cccc4cccc(Cl)c24)C3)C[C@@H]1CC#N    0.1 to 1000 nM

Entry C=CC(=O)N1CCN(c2nc(OCCCN3CCOCC3)nc3c2CCN(c2cc(O)cc(C4CC4)c2)C3)CC1 [Example 41, trifluoroacetate] has what IC50? > 1000 nM

Would you kindly repeat that for `C=C(F)C(=O)N1CCN(c2nc(OC[C@@H]3CCCN3C)nc3c2CCN(c2cccc4cccc(C(F)(F)F)c24)C3)C[C@@H]1CC#N` ? 0.1 to 1000 nM

Would you kindly repeat that for `C=CC(=O)N1CCN(c2nc(OC[C@@H]3CCCN3CC)nc3c2CCN(c2cc(O)cc4ccccc24)C3)CC1` ? 0.1 to 1000 nM

Would you kindly repeat that for `C=C(CO)C(=O)N1CCN(c2nc(OC[C@@H]3CCCN3C)nc3c2CCN(c2cccc(C)c2C)C3)C[C@@H]1CC#N` ? > 1000 nM

Would you kindly repeat that for `C=CC(=O)N1CCN(c2nc(OC[C@@H]3CCCN3C)nc3c2CCN(c2cccc(F)c2C)C3)C[C@@H]1CC#N` ? 0.1 to 1000 nM

Would you kindly repeat that for `C=CC(=O)N1CCN(c2nc(OC[C@@H]3CCCN3C)nc3c2CCN(c2cccc4cccc(C(F)(F)F)c24)C3)C[C@@H]1CC#N` ? 0.1 to 1000 nM

Would you kindly repeat that for C=CC(=O)N1CCN(c2nc(OCCCN3CCC(OC)C3)nc3c2CCN(c2cc(O)cc4ccccc24)C3)CC1 (centres unmarked) ? > 1000 nM
